Assay: Nanoparticle formation of peptides with ADGN-106: mean size and polydispersity (Zetasizer)
Format: physicochemical
Conditions: peptide/ADGN-106 complexes, 25° C.
Ends that are not written are not given here.
// reported Mean Size (nm) per item
property_name: Mean Size (nm)

>>> observed_measurement("Ac-N*GVEGFNK*Ava-LWRALWRLWRSLWRLLWK-NH2 [Seq17]")
57
>>> observed_measurement("Ac-G*FQPTNGVK*-Ava-LWRALWRLWRSLWRLLWK-NH2 [Seq21]")
78.2
>>> observed_measurement("Ac-T*EYQAGSTK*Ava-LWRALWRLWRSLWRLLWK-NH2 [Seq16]")
44.2
>>> observed_measurement("Ac-KTFLDKFNHEAEDLFPGPKWSAFLKEQSTLAQMYG [Seq28]")
34.6
>>> observed_measurement("Ac-S*KVGGNYNYLY*R-Ava/Ahx-LWRALWRLWRSLWRLLWK-NH2 [Seq12]")
35.4
>>> observed_measurement("Ac-EQAKTFLDKFNHEAEDLFPKWSAFLKEQSTLAQMYG [Seq27]")
62.1
>>> observed_measurement("Ac-S*YGFQPTNGV*-Ava-LWRALWRLWRSLWRLLWK-NH2 [Seq20]")
68.1
>>> observed_measurement("Ac-T*NGVGYQPYK*-Ava-LWRALWRLWRSLWRLLWK-NH2 [Seq22]")
54.4
>>> observed_measurement("Ac-G*NYNYLYRLFK*-Ava-LWRALWRLWRSLWRLLWK-NH2 [Seq15]")
37.5

----------
// reported pIC50 per item
Tested on: SARS-CoV-2
Settings: read-out: SARS-COV2 IC50; original strain, second Table 19; siRNA complexed at molar ratio 1/20
pIC50: −log10 of the molar value.
property_name: pIC50

>>> observed_measurement("Ac-N*GVEGFNK*Ava-LWRALWRLWRSLWRLLWK-NH2 [Seq17]")
7.50
>>> observed_measurement("GGCCAAACTGTCACTAAGAAA (chemistry not given here) [DIVC-6]")
7.17

----------
Experiment: in vitro
Conditions: uninfected Vero E6 cells
Ends that are not written are not given here.
property_name: viability at 0.5 µM (%)

>>> observed_measurement("Ac-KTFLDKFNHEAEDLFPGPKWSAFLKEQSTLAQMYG [Seq28]")
78

----------
// reported pIC50 per item
Test system: SARS-CoV-2 ORF 8 gene
Assay type: cell-based
pIC50: −log10 of the molar value.
property_name: pIC50

>>> observed_measurement("GACCCGTGTCCTATTCACTTC [DIVC-82]")
7.66
>>> observed_measurement("GCGTTGTTCGTTCTATGAAGA (chemistry not given here) [DIVC-84]")
6.95
>>> observed_measurement("GTGGATGAGGCTGGTTCTAAA [DIVC-83]")
7.81
>>> observed_measurement("GTCCTATTCACTTCTATTCTA (chemistry not given here) [DIVC-85]")
7.97

----------
Target: ACE2:SARS-CoV-2 Spike interaction (UniProt P0DTC2+Q9BYF1)
Assay: biochemical
Type: binding
Details: ACE2:SARS-CoV-2 Spike IC50
Ends that are not written are not given here.
// reported IC50 per item
property_name: IC50

>>> observed_measurement("STEYQAGST [Seq5]")
"> 10 µM"
>>> observed_measurement("Ac-KTFLDKFNHEAEDLF [Seq25]")
"1.9 µM"
>>> observed_measurement("GNYNYLYRL [Seq3]")
"> 10 µM"
>>> observed_measurement("VEGFNCYFP [Seq7]")
"> 10 µM"
>>> observed_measurement("GFQPTNGVK [Seq10]")
"> 10 µM"
>>> observed_measurement("Ac-NMTQGFWENSMLTD [Seq30]")
"> 10 µM"
>>> observed_measurement("Ac-TAWDLGKGDFRI [Seq29]")
"> 10 µM"
>>> observed_measurement("SYGFQPTNGV [Seq9]")
"> 10 µM"
>>> observed_measurement("Ac-NMTQGFWENPGGPTAWDLGK [Seq31]")
"> 10 µM"
>>> observed_measurement("TNGVGYQPY [Seq11]")
"> 1 µM"
>>> observed_measurement("Ac-EQAKTFLDKFNHEAEDLF [Seq24]")
"0.57 µM"
>>> observed_measurement("Ac-KTFLDKFNHEAEDLFYS [Seq26]")
"2.1 µM"
>>> observed_measurement("KVGGNYNYL [Seq2]")
"> 10 µM"

----------
System: SARS-CoV-2 ORF 3A gene
Type: cell-based
Friendly reminder: IC50 below 60 nM is true, at or above is false.

>>> class_label("CAAGTCCTATTTCTGAACATG (chemistry not given here) [DIVC-33]")
"true"
>>> class_label("GTGTAACTTCTTCAATTGTCA (chemistry not given here) [DIVC-32]")
"false"
>>> class_label("GGTGAAATCAAGGATGCTACT [DIVC-31]")
"true"
>>> class_label("TGCAGAGTATAAACTTTGTAA (chemistry not given here) [DIVC-35]")
"false"
>>> class_label("GAACATGTTACCTTCTTCATC (chemistry not given here) [DIVC-34]")
"true"

----------
Target: SARS-CoV-2 Spike: ACE2 interaction (UniProt P0DTC2+Q9BYF1)
Sequence (Q9BYF1 18-740, one chain of several): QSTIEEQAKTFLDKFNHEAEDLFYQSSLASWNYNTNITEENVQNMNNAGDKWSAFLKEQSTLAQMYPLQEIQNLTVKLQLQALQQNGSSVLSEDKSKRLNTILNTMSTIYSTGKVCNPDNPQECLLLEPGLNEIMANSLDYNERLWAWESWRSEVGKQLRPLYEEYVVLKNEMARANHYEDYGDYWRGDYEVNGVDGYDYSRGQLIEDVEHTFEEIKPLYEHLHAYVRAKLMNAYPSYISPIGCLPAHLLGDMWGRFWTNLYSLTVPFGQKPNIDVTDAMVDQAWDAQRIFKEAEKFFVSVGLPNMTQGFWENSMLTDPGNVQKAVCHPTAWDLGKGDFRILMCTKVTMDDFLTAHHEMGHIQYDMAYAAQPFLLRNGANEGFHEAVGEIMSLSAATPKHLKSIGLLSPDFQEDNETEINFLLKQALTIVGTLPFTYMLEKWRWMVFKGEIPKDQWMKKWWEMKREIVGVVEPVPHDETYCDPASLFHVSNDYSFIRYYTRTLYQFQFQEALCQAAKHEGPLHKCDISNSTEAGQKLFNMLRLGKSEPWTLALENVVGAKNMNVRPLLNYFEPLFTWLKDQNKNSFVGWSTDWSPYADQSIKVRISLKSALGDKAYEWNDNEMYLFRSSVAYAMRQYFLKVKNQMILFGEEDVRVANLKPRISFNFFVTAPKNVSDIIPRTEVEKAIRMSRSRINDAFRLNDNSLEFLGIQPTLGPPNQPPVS
Assay: biochemical
Type: binding
Details: SARS-CoV-2 Spike:ACE2 IC50
pIC50: −log10 of the molar value. Ends that are not written are not given here.
property_name: pIC50

>>> observed_measurement("Ac-NMTQGFWENSMLTD [Seq30]")
"< 5.00"
>>> observed_measurement("GNYNYLYRL [Seq3]")
"< 5.00"
>>> observed_measurement("GFQPTNGVK [Seq10]")
"< 5.00"
>>> observed_measurement("SYGFQPTNGV [Seq9]")
"< 5.00"
>>> observed_measurement("VEGFNCYFP [Seq7]")
"< 5.00"
>>> observed_measurement("Ac-NMTQGFWENPGGPTAWDLGK [Seq31]")
"< 5.00"
>>> observed_measurement("Ac-KTFLDKFNHEAEDLF [Seq25]")
5.60
>>> observed_measurement("Ac-EQAKTFLDKFNHEAEDLF [Seq24]")
5.89
>>> observed_measurement("STEYQAGST [Seq5]")
"< 5.00"
>>> observed_measurement("Ac-TAWDLGKGDFRI [Seq29]")
"< 5.00"
>>> observed_measurement("TNGVGYQPY [Seq11]")
"< 6.00"
>>> observed_measurement("KVGGNYNYL [Seq2]")
"< 5.00"
>>> observed_measurement("Ac-KTFLDKFNHEAEDLFYS [Seq26]")
5.72

----------
Test: in vitro
Conditions: uninfected Vero E6 cells
Ends that are not written are not given here.
property_name: CC50 (µM)

>>> observed_measurement("Ac-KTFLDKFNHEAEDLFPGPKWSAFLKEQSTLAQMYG [Seq28]")
290

----------
// reported IC50 per item
Tested on: SARS-CoV-2 Nucleocapsid gene
Type: cell-based
property_name: IC50 (nM)

>>> observed_measurement("GCAGACGTGGTCCAGAACAAA (chemistry not given here) [DIVC-7]")
147
>>> observed_measurement("GACAAGGCGTTCCAATTAACA (chemistry not given here) [DIVC-3]")
11.4
>>> observed_measurement("GGCCAAACTGTCACTAAGAAA (chemistry not given here) [DIVC-6]")
8.7
>>> observed_measurement("GCAACAATCCATGAGCAGTGC (chemistry not given here) [DIVC-10]")
28.4
>>> observed_measurement("AAGCATATTGACGCATACAAA (chemistry not given here) [DIVC-9]")
394
>>> observed_measurement("GCCTCTTCTCGTTCCTCATCA (chemistry not given here) [DIVC-8]")
27.3
>>> observed_measurement("GACTTCCCTATGGTGCTAACA (chemistry not given here) [DIVC-4]")
254

----------
System: SARS-CoV-2
Assay: siRNA/ADGN-100 complexes on SARS-CoV2 virus infection, Vero E6 cells
Type: cell-based
Conditions: siRNA complexed with ADGN-100 at molar ratio 1/20, added to Vero-E6 immediately prior to virus infection; read-out: IC50
pIC50: −log10 of the molar value.
// reported pIC50 per item
property_name: pIC50

>>> observed_measurement("GCCTCTTCTCGTTCCTCATCA (chemistry not given here) [DIVC-8]")
6.93
>>> observed_measurement("GAACATGTTACCTTCTTCATC (chemistry not given here) [DIVC-34]")
5.84
>>> observed_measurement("GACAAGGCGTTCCAATTAACA (chemistry not given here) [DIVC-3]")
7.08
>>> observed_measurement("GGCCAAACTGTCACTAAGAAA (chemistry not given here) [DIVC-6]")
7.17
>>> observed_measurement("GTCCTATTCACTTCTATTCTA (chemistry not given here) [DIVC-85]")
5.91

----------
// reported TD50 (μM) per item
Tested on: Vero-6 cells
Test: Cellular toxicity of siRNA/ADGN-100 complexes on Vero-6 cells, CellTiter-Glo
Details: uninfected Vero-6 cells
Ends that are not written are not given here.
property_name: TD50 (μM)

>>> observed_measurement("GTCCTATTCACTTCTATTCTA (chemistry not given here) [DIVC-85]")
"248 + 35 μM"
>>> observed_measurement("KWRSAGWRWRLWRVRSWSR [ADGN-100, reference compound]")
"368 + 18 μM"
>>> observed_measurement("GCCTCTTCTCGTTCCTCATCA (chemistry not given here) [DIVC-8]")
"548 + 25 μM"
>>> observed_measurement("GAACATGTTACCTTCTTCATC (chemistry not given here) [DIVC-34]")
"589 + 17 μM"
>>> observed_measurement("GACAAGGCGTTCCAATTAACA (chemistry not given here) [DIVC-3]")
"452 + 20 μM"
>>> observed_measurement("GGCCAAACTGTCACTAAGAAA (chemistry not given here) [DIVC-6]")
"652 + 24 μM"
